The measurements presented in this section are drawn from patent US20220267464A1.

Test target: T1, hu N(A2-B2)A-avi-His (human, biotin on the avi tag where used biotinylated)
T1 construct: chimeric soluble antigen; also called hu N(A2-B2)A-avi-His B; human CEA (A2 domain)
T1 chain: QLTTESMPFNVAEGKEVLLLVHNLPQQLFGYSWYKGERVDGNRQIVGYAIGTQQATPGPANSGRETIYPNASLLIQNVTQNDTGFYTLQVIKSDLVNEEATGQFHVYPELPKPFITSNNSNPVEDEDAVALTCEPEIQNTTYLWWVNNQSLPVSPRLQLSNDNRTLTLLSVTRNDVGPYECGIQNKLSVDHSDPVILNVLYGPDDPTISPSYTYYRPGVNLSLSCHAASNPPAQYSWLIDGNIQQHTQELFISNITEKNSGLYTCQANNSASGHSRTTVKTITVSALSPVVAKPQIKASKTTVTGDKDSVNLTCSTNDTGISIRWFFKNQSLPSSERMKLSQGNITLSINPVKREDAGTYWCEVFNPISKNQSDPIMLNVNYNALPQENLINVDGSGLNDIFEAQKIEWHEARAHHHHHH
Assay info: SPR (ProteOn XPR36), purified Fab, biotinylated antigen on NLC chip
Observable: koff (s⁻¹)
Respond with the bare value in s⁻¹.

Please look up its koff: A5H1EL1D Fab (phagemid-derived) (Fab, V domains shown, Flag tag; also called parental humanized clone A5H1EL1D) VH: EVQLLESGGGLVQPGGSLRLSCAASGFTFTDYYMNWVRQAPGKGLEWLGFIGNKANAYTTEYSASVKGRFTISRDKSKNTLYLQMNSLRAEDTATYYCTRDRGLRFYFDYWGQGTTVTVSS VL: EIVLTQSPATLSLSPGERATLSCRASSSVTYIHWYQQKPGQAPRSWIYATSNLASGIPARFSGSGSGTDFTLTISSLEPEDFAVYYCQHWSSKPPTFGQGTKLEIK
0.000248

Please look up its koff: P006.038 Fab (Fab, V domains shown, Fab from E. coli (supernatant or IMAC-purified); Flag tag; also called CEA (P006.038)) VH: EVQLLESGGGLVQPGGSLRLSCAASGFTFTDYYMNWVRQAPGKGLEWLGFIGNKANAYTTEYSASVKGRFTISRDKSKNTLYLQMNSLRAEDTATYYCTRDRGIRFGFDYWGQGTTVTVSS VL: EIVLTQSPATLSLSPGERATLSCRASSSVTYIHWYQQKPGQAPRSWIYATSNLASGIPARFSGSGSGTDFTLTISSLEPEDFAVYYCQHWSSVPPTFGQGTKLEIK
5.78e-05
